Origin of the recorded values: ChEMBL document CHEMBL1135887

- assaySystem: Muscarinic acetylcholine receptor M1 (Homo sapiens) (UniProt P11229)
- Sequence (whole entry): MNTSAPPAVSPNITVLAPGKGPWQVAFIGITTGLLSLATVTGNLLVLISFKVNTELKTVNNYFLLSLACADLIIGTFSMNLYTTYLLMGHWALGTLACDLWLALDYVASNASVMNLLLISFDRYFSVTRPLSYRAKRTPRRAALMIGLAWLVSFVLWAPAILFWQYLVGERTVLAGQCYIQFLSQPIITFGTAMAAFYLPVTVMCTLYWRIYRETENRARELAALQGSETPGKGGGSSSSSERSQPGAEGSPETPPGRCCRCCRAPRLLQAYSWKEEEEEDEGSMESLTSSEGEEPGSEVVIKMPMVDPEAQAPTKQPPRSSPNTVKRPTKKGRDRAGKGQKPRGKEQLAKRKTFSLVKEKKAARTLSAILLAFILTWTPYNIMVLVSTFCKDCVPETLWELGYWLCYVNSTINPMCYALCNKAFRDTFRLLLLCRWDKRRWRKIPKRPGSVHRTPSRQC
- procedureText: Logarithm of affinity (log 1/M) at the free muscarinic acetylcholine receptor M1 by using semiquantitative equilibrium and off-rate assay
// Log 1/M lookup, one value per entry
readout: Log 1/M

chemSmiles	readout	number
CC1(C)CC(=O)n2c3ccccc3c3c4c(cc1c32)CCNC4	Log 1/M	5.6
O=C1CCc2cc3c(c4c5c(O)cccc5n1c24)CCNC3	Log 1/M	5.84
COc1ccc2c3c4c(cc5c3n(c2c1)C(=O)CC5)CNCC4	Log 1/M	5.84
Cc1ccc2c(c1)c1c3c(cc4c1n2C(=O)CC4)CNCC3	Log 1/M	5.9
O=C(c1ccc2c(c1)c1c3c(cc4c1n2C(=O)CC4)CNCC3)N1CCOCC1	Log 1/M	5.1
COC(=O)c1ccc2c(c1)c1c3c(cc4c1n2C(=O)CC4)CCNC3	Log 1/M	6.19
COc1cccc2c3c4c(cc5c3n(c12)C(=O)CC5)CNCC4	Log 1/M	5.4
O=C1CCc2cc3c(c4c5ccccc5n1c24)CCNC3	Log 1/M	5.49
O=C1CCc2cc3c(c4c5cccc(O)c5n1c24)CCNC3	Log 1/M	5.49
O=C1CCc2cc3c(c4c5ccc(Cl)cc5n1c24)CCNC3	Log 1/M	6.06
O=C1CCc2cc3c(c4c5cc(Cl)ccc5n1c24)CCNC3	Log 1/M	5.66

###

- assaySystem: Muscarinic acetylcholine receptor M2 (Homo sapiens)
- Sequence (whole entry): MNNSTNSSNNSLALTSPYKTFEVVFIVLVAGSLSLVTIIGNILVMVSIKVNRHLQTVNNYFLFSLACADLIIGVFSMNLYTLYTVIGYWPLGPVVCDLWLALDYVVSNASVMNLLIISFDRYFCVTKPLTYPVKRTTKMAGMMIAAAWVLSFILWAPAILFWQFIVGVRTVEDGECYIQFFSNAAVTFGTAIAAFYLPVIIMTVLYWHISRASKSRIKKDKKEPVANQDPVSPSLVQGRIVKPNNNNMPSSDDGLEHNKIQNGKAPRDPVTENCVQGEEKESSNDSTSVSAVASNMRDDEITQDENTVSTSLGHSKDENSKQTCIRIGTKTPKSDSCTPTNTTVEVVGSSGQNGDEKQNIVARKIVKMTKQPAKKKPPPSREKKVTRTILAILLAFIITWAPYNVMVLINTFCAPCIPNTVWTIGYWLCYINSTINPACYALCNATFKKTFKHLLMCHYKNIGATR
- procedureText: Logarithm of affinity (log 1/M) at the muscarinic acetylcholine receptor M2 by using semiquantitative equilibrium and off-rate assay
readout: Log 1/M

chemSmiles	readout	number
O=C1CCc2cc3c(c4c5ccc(O)cc5n1c24)CNCC3	Log 1/M	5.6
COc1cccc2c3c4c(cc5c3n(c12)C(=O)CC5)CNCC4	Log 1/M	5.19
O=C1CCc2cc3c(c4c5ccccc5n1c24)CNCC3	Log 1/M	5.51
COc1ccc2c3c4c(cc5c3n(c2c1)C(=O)CC5)CCNC4	Log 1/M	5.92
O=C1CCc2cc3c(c4c5ccc(O)cc5n1c24)CCNC3	Log 1/M	5.24
COc1cc2c3c4c(cc5c3n(c2cc1OC)C(=O)CC5)CNCC4	Log 1/M	6.15
COc1cc2c3c4c(cc5c3n(c2cc1OC)C(=O)CC5(C)C)CCNC4	Log 1/M	7.08
O=C1CCc2cc3c(c4c5cc6c(cc5n1c24)OCO6)CCNC3	Log 1/M	6.18
CC1(C)CC(=O)n2c3ccccc3c3c4c(cc1c32)CCNC4	Log 1/M	5.69
COC(=O)c1ccc2c(c1)c1c3c(cc4c1n2C(=O)CC4)CCNC3	Log 1/M	6.14
COc1ccc2c(c1)c1c3c(cc4c1n2C(=O)CC4)CNCC3	Log 1/M	5.96

###

- assaySystem: Muscarinic acetylcholine receptor M1 (Homo sapiens) (UniProt P11229)
- procedureText: Logarithm of affinity (log 1/M) at the free muscarinic acetylcholine receptor M1 by using semiquantitative equilibrium and off-rate assay
// Log 1/M lookup, one value per entry
readout: Log 1/M

chemSmiles	number
COc1cc2c3c4c(c(COC(C)=O)c5c3n(c2cc1OC)C(=O)CC5)CNCC4	6.09
COC(=O)c1cccc2c1c1c3c(cc4c1n2C(=O)CC4)CNCC3	5.47
O=C1CCc2cc3c(c4c5cc(O)ccc5n1c24)CNCC3	6.04
O=C(O)c1ccc2c(c1)c1c3c(cc4c1n2C(=O)CC4)CNCC3	5.43
COc1cc2c3c4c(cc5c3n(c2cc1OC)C(=O)CC5(C)C)CCNC4	6.88
N#Cc1ccc2c3c4c(cc5c3n(c2c1)C(=O)CC5)CNCC4	5.87

###

// Log 1/M lookup, one value per entry
- assaySystem: Muscarinic acetylcholine receptor M2 (Homo sapiens)
- procedureText: Logarithm of affinity (log 1/M) at the (N-methyl Scopolamine) NMS-liganded muscarinic acetylcholine receptor M2 by using semiquantitative equilibrium and off-rate assay

chemSmiles	assaySystem	Log 1/M
O=C1CCc2cc3c(c4c5cccc(O)c5n1c24)CCNC3	Muscarinic acetylcholine receptor M2 (Homo sapiens)	5.67
COc1cccc2c3c4c(cc5c3n(c12)C(=O)CC5)CNCC4	Muscarinic acetylcholine receptor M2 (Homo sapiens)	5.55
COc1cc2c3c4c(cc5c3n(c2cc1OC)C(=O)CC5)CNCC4	Muscarinic acetylcholine receptor M2 (Homo sapiens)	6.47
COc1cc2c(c(OC)c1OC)c1c3c(cc4c1n2C(=O)CC4)CNCC3	Muscarinic acetylcholine receptor M2 (Homo sapiens)	6.67
Cc1ccc2c(c1)c1c3c(cc4c1n2C(=O)CC4)CNCC3	Muscarinic acetylcholine receptor M2 (Homo sapiens)	6.47
COc1ccc2c(c1)c1c3c(cc4c1n2C(=O)CC4)CCNC3	Muscarinic acetylcholine receptor M2 (Homo sapiens)	6.05
N#Cc1ccc2c3c4c(cc5c3n(c2c1)C(=O)CC5)CNCC4	Muscarinic acetylcholine receptor M2 (Homo sapiens)	5.58
O=C1CCc2cc3c(c4c5cc(CN6CCOCC6)ccc5n1c24)CCNC3	Muscarinic acetylcholine receptor M2 (Homo sapiens)	5.79
O=C1CCc2cc3c(c4c5ccc(Cl)cc5n1c24)CCNC3	Muscarinic acetylcholine receptor M2 (Homo sapiens)	6.81
COc1cc2c3c4c(cc5c3n(c2cc1OC)C(=O)CC5)CCNC4	Muscarinic acetylcholine receptor M2 (Homo sapiens)	6.97
COc1ccc2c3c4c(cc5c3n(c2c1)C(=O)CC5)CCNC4	Muscarinic acetylcholine receptor M2 (Homo sapiens)	6.18
COc1ccc2c3c4c(cc5c3n(c2c1)C(=O)CC5)CNCC4	Muscarinic acetylcholine receptor M2 (Homo sapiens)	6.35
O=C1CCc2cc3c(c4c5ccc(O)cc5n1c24)CNCC3	Muscarinic acetylcholine receptor M2 (Homo sapiens)	5.64

###

- assaySystem: Muscarinic acetylcholine receptor M1 (Homo sapiens) (UniProt P11229)
- procedureText: Logarithm of affinity (log 1/M) at the (N-methyl Scopolamine) NMS-liganded muscarinic acetylcholine receptor M1 by using semiquantitative equilibrium and off-rate assay
readout: Log 1/M

chemSmiles	number
N#Cc1ccc2c3c4c(cc5c3n(c2c1)C(=O)CC5)CNCC4	5.46
O=C(c1ccc2c(c1)c1c3c(cc4c1n2C(=O)CC4)CNCC3)N1CCOCC1	4.7
COc1ccc2c(c1)c1c3c(cc4c1n2C(=O)CC4)CCNC3	5.91
O=C1CCc2cc3c(c4c5cc(O)ccc5n1c24)CNCC3	6.07
COc1cc2c3c4c(cc5c3n(c2cc1OC)C(=O)CC5(C)C)CCNC4	6.29
COc1cccc2c1c1c3c(cc4c1n2C(=O)CC4)CNCC3	5.95

###

- assaySystem: Muscarinic acetylcholine receptor M4 (Homo sapiens) (UniProt P08173)
- Sequence (whole entry): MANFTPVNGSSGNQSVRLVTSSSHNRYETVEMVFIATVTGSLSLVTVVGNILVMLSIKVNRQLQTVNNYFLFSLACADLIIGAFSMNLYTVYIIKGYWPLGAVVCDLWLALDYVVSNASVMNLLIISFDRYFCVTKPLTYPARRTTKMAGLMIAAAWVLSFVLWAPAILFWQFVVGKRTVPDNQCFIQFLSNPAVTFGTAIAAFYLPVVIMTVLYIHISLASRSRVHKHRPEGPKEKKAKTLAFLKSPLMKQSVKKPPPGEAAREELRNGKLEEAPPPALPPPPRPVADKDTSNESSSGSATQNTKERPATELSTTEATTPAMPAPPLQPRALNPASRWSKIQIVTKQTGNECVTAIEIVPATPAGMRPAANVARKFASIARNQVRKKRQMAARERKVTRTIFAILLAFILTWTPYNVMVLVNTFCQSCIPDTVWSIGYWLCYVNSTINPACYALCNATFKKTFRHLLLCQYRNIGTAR
- procedureText: Logarithm of affinity (log 1/M) at the (N-methyl Scopolamine) NMS-liganded muscarinic acetylcholine receptor M4 by using semiquantitative equilibrium and off-rate assay

chemSmiles	Log 1/M
COC(=O)c1ccc2c(c1)c1c3c(cc4c1n2C(=O)CC4)CCNC3	5.91
CC1(C)CC(=O)n2c3cccc(O)c3c3c4c(cc1c32)CNCC4	5.97
O=C(c1ccc2c(c1)c1c3c(cc4c1n2C(=O)CC4)CNCC3)N1CCOCC1	4.54
O=C1CCc2cc3c(c4c5ccccc5n1c24)CCNC3	5.37
COc1ccc2c3c4c(cc5c3n(c2c1)C(=O)CC5)CCNC4	6
O=C1CCc2cc3c(c4c5c(Cl)cccc5n1c24)CCNC3	6.66
CC1(C)CC(=O)n2c3ccccc3c3c4c(cc1c32)CCNC4	5.8
O=C1CCc2cc3c(c4c5cc(CN6CCOCC6)ccc5n1c24)CCNC3	5.35
O=C1CCc2cc3c(c4c5cc(O)ccc5n1c24)CCNC3	6.05
COC(=O)c1c2c(c3c4cc(OC)c(OC)cc4n4c3c1CCC4=O)CCNC2	5.96
COc1ccc2c(c1)c1c3c(cc4c1n2C(=O)CC4)CCNC3	5.74
COc1cccc2c1c1c3c(cc4c1n2C(=O)CC4)CNCC3	6.26
O=C1CCc2cc3c(c4c5c(O)cccc5n1c24)CCNC3	6.13
